System: HCT116 cells
EXPERIMENT_SUMMARY: Lactate dehydrogenase (LDH) release assay
Assay type: cell-based
Positions of bridges follow the written chain, without caps; N, C: chain ends. Non-standard residues stand in square brackets, D forms with d. Residues, ends and D or L forms follow the SMILES beside them. 2Nal = N[C@@H](Cc1ccc2ccccc2c1)C(=O)O; tBuAla = CC(C)(C)C[C@H](N)C(=O)O; R8 = C=CCCCCCC[C@@](C)(N)C(=O)O; Cba = N[C@@H](CC1CCC1)C(=O)O; S5 = C=CCCC[C@](C)(N)C(=O)O; Aib = CC(C)(N)C(=O)O
Measured LDH: Cytotoxicity assay % Effect, listed per entry for reference.
Give the value in % but do not write % after it.

A selection of reference data follows.
MOLECULE: CC(=O)N[C@H](C(=O)N[C@@H](CCCNC(N)=O)C(=O)N[C@H](C(=O)N[C@@H](CO)C(=O)N[C@@H](Cc1ccccc1)C(=O)N[C@]1(C)CCCCCCC=CCCC[C@@](C)(C(N)=O)NC(=O)[C@H](CC(C)C)NC(=O)[C@H](CC(C)C)NC(=O)[C@H](C)NC(=O)[C@H](Cc2c[nH]c3ccccc23)NC(=O)[C@H](Cc2ccc(O)cc2)NC(=O)[C@H](CCC(=O)O)NC1=O)[C@@H](C)O)C(C)C [MP-9667]
READOUT_NUMBER: 5.511
//
MOLECULE: CC(=O)N[C@@H](CCCNC(=N)N)C(=O)NCCCCCC(=O)N[C@H](C(=O)N[C@@H](CO)C(=O)N[C@@H](Cc1ccccc1)C(=O)N[C@]1(C)CCCCCCC=CCCC[C@@](C)(C(=O)N[C@@H](CCC(=O)O)C(=O)N[C@@H](CC(N)=O)C(=O)N[C@@H](Cc2ccccc2)C(N)=O)NC(=O)[C@H](CC(C)C)NC(=O)[C@H](CC(C)C)NC(=O)[C@H](C)NC(=O)[C@H](Cc2c[nH]c3ccccc23)NC(=O)[C@H](Cc2ccc(O)cc2)NC(=O)[C@H](CCC(=O)O)NC1=O)[C@@H](C)O [MP-038]
READOUT_NUMBER: 5.515
//
MOLECULE: CC(=O)N[C@@H](CC(C)C)C(=O)N[C@H](C(=O)N[C@@H](Cc1ccccc1)C(=O)N[C@]1(C)CCCCCCC=CCCC[C@@](C)(C(=O)N[C@@H](CO)C(=O)N[C@@H](C)C(=O)N[C@@H](C)C(N)=O)NC(=O)[C@H](CC2CCC2)NC(=O)[C@H](CC(C)C)NC(=O)[C@H](CCC(N)=O)NC(=O)[C@H](Cc2c[nH]c3ccccc23)NC(=O)[C@H](Cc2ccc(O)cc2)NC(=O)[C@H](CCCNC(=N)N)NC1=O)[C@@H](C)O [MP-193] (Ac-LTF[R8]RYWQL[Cba][S5]SAA-NH2; staple 4-11)
READOUT_NUMBER: 58.33
//
MOLECULE: CC(=O)N[C@H](C(=O)N[C@@H](CO)C(=O)N[C@@H](Cc1ccc2ccccc2c1)C(=O)NC(C)(C)C(=O)N[C@@H](CCC(=O)O)C(=O)N[C@@H](Cc1ccc(O)cc1)C(=O)N[C@@H](Cc1c[nH]c2ccccc12)C(=O)N[C@@H](C)C(=O)N[C@@H](CC(C)C)C(=O)N[C@@H](CC(C)C)C(=O)NC(C)(C)C(N)=O)[C@@H](C)O [MP-161] (Ac-TS[2Nal][Aib]EYWALL[Aib]-NH2)
READOUT_NUMBER: -0.5798
//
MOLECULE: CC(=O)N[C@H](C(=O)N[C@@H](CO)C(=O)N[C@@H](Cc1ccccc1)C(=O)NC(C)(C)C(=O)N[C@@H](CCC(=O)O)C(=O)N[C@@H](Cc1ccc(O)cc1)C(=O)N[C@@H](Cc1c[nH]c2ccccc12)C(=O)N[C@@H](C)C(=O)N[C@@H](CC(C)C)C(=O)N[C@@H](CC(C)(C)C)C(=O)NC(C)(C)C(N)=O)[C@@H](C)O [MP-155] (Ac-TSF[Aib]EYWAL[tBuAla][Aib]-NH2)
READOUT_NUMBER: -0.2131
//
MOLECULE: CC(=O)N1CCC[C@H]1C(=O)N[C@@H](CCCNC(=N)N)C(=O)N[C@@H](Cc1ccccc1)C(=O)N[C@]1(C)CCCCCCC=CCCC[C@@](C)(C(=O)N[C@@H](CCC(=O)O)C(N)=O)NC(=O)[C@H](CC(C)C)NC(=O)[C@H](CCCNC(=N)N)NC(=O)[C@H](Cc2ccc(O)cc2)NC(=O)[C@H](Cc2c[nH]c3ccccc23)NC(=O)[C@H](Cc2ccc(O)cc2)NC(=O)[C@H](CCC(=O)O)NC1=O [MP-2030] (Ac-PRF[R8]EYWYRL[S5]E-NH2; staple 4-11)
READOUT_NUMBER: 32.25
//
MOLECULE: CC(=O)N[C@@H](CN)C(=O)NCCCCCC(=O)N[C@H](C(=O)N[C@@H](CO)C(=O)N[C@@H](Cc1ccccc1)C(=O)N[C@]1(C)CCCCCCC=CCCC[C@@](C)(C(=O)N[C@@H](CCC(=O)O)C(=O)N[C@@H](CC(N)=O)C(=O)N[C@@H](Cc2ccccc2)C(N)=O)NC(=O)[C@H](CC(C)C)NC(=O)[C@H](CC(C)C)NC(=O)[C@H](C)NC(=O)[C@H](Cc2c[nH]c3ccccc23)NC(=O)[C@H](Cc2ccc(O)cc2)NC(=O)[C@H](CCC(=O)O)NC1=O)[C@@H](C)O [MP-665]
READOUT_NUMBER: 4.993
//
MOLECULE: CC(C)C[C@@H]1NC(=O)[C@H](C)NC(=O)[C@H](Cc2c[nH]c3ccccc23)NC(=O)[C@H](Cc2ccc(O)cc2)NC(=O)[C@H](CCC(=O)O)NC(=O)[C@](C)(NC(=O)[C@H](Cc2ccccc2)NC(=O)[C@H](CO)NC(=O)[C@@H](NC(=O)[C@H](CO)NC(=O)CNC(=O)[C@@H](N)CO)[C@@H](C)O)CCCCCCC=CCCC[C@@](C)(C(N)=O)NC(=O)[C@H](CC(C)C)NC1=O [MP-132]
READOUT_NUMBER: 1.056

**Q:** Given CC(=O)N[C@H](C(=O)N[C@@H](CO)C(=O)N[C@@H](Cc1ccccc1)C(=O)N[C@]1(C)CCCCCCC=CCCC[C@@](C)(C(N)=O)NC(=O)[C@H](CC(C)C)NC(=O)[C@H](CC(C)C)NC(=O)[C@H](C)NC(=O)[C@H](Cc2c[nH]c3ccccc23)NC(=O)[C@H](Cc2ccc(O)cc2)NC(=O)[C@H](CCC(N)=O)NC1=O)[C@@H](C)O [MP-163] (Ac-TSF[R8]QYWALL[S5]-NH2; staple 4-11) , state its recorded LDH: Cytotoxicity assay % Effect.
**A:** 6.049

**Q:** What about CC(=O)N[C@H](C(=O)N[C@@H](CO)C(=O)N[C@@H](Cc1ccc2ccccc2c1)C(=O)N[C@]1(C)CCCCCCC=CCCC[C@@](C)(C(=O)N[C@@H](CCC(=O)O)C(N)=O)NC(=O)[C@H](CC(C)C)NC(=O)[C@H](CC(C)C)NC(=O)[C@H](C)NC(=O)[C@H](Cc2c[nH]c3ccccc23)NC(=O)[C@H](Cc2ccc(O)cc2)NC(=O)[C@H](CCC(=O)O)NC1=O)[C@@H](C)O [MP-146] (Ac-TS[2Nal][R8]EYWALL[S5]E-NH2; staple 4-11) ?
**A:** 16.49
